Where a name gives a salt, the structure may show the parent alone.
MEASUREMENT_TYPE: melting point

CCCc1nc2c(N)nc3ccccc3c2n1CCCCCC(C)=O    161 to 163 °C

Would you be so kind as to report melting point for each listed record?
1. CCCc1nc2c(N)nc3ccccc3c2n1CCCCC(=O)N(C)OC
2. CCCCc1nc2c(N)nc3ccccc3c2n1CCCC(C)=O
3. Nc1nc2ccccc2c2c1ncn2CCCCCC(=O)c1ccccc1
4. CCCc1nc2c(N)nc3ccccc3c2n1CCCCCCCCCCCC(=O)c1ccccc1 (as salt: hydrochloride)
5. CC(=O)CC(C)(C)Cn1c(C)nc2c(N)nc3ccccc3c21
6. CCOCc1nc2c(N)nc3ccccc3c2n1CCCC1(C)OCCO1
7. CCCc1nc2c(N)nc3ccccc3c2n1CCCCCC(=O)OCC
8. CCc1nc2c(N)nc3ccccc3c2n1CCCC(C)=O

-- reply
1: 150 to 151 °C; 2: 173 to 176 °C; 3: 163 to 165 °C; 4: 195 to 196 °C; 5: 223 to 225 °C; 6: 150 to 152 °C; 7: 112 to 113 °C; 8: 206 to 208 °C
